- tgt: SIX1-Q177R homeodomain (human, UniProt Q15475 108-198, Q177R)
- Sequence: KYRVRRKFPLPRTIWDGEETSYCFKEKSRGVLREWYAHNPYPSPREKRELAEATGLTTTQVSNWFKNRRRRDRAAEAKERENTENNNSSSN
- protocol: universal protein binding microarray; Universal all-10-mer PBM (8x60K, AMADID 030236), 300 nM GST-tagged protein, Alexa Fluor 488 anti-GST; buffer, salt, pH and temperature not stated (as in Berger); high values mean tight binding
- test.settings: protein: ivt; tags: N-terminal GST; dsDNA, one strand shown
Over roughly 33,000 sequences, “e-score” has its median near -0.05; the highest 2% begin near 0.38. Only a selection was taken, and the highest values are over-represented in it overall.
binding signal of 0.2 E-score or higher: 1. Under 0.2 E-score: 0.

Determine whether measured binding signal meets or exceeds 0.2 E-score for `CACCCACC` 1

Determine whether measured binding signal meets or exceeds 0.2 E-score for `CCCTCTGA` 0

Determine whether measured binding signal meets or exceeds 0.2 E-score for `CGTGTATA` 1

Determine whether measured binding signal meets or exceeds 0.2 E-score for `GGTATCAC` 1

Determine whether measured binding signal meets or exceeds 0.2 E-score for `CGTATCAC` 0

Determine whether measured binding signal meets or exceeds 0.2 E-score for `ATACTACA` 1

Determine whether measured binding signal meets or exceeds 0.2 E-score for `ATTCTACA` 0

Determine whether measured binding signal meets or exceeds 0.2 E-score for `ACCCACGC` 0

Determine whether measured binding signal meets or exceeds 0.2 E-score for `GGATAAAC` 0

Determine whether measured binding signal meets or exceeds 0.2 E-score for `ACCCTTCC` 0

Determine whether measured binding signal meets or exceeds 0.2 E-score for `GGTGTATA` 1

Determine whether measured binding signal meets or exceeds 0.2 E-score for `ACCCTCGT` 0

Determine whether measured binding signal meets or exceeds 0.2 E-score for `ACGGGGTA` 1

Determine whether measured binding signal meets or exceeds 0.2 E-score for `CCCCTTAC` 1

Determine whether measured binding signal meets or exceeds 0.2 E-score for `CACCAATC` 1

Determine whether measured binding signal meets or exceeds 0.2 E-score for `AGAGGTAT` 1

Determine whether measured binding signal meets or exceeds 0.2 E-score for `GGTATCAA` 1

Determine whether measured binding signal meets or exceeds 0.2 E-score for `AGGTGACT` 0

Determine whether measured binding signal meets or exceeds 0.2 E-score for `CGCCACCC` 0
